Readings of pEC50 for the listed compounds
- studyTarget: Peroxisome proliferator-activated receptor alpha (Homo sapiens, UniProt Q07869)
- Sequence (Q07869 whole entry): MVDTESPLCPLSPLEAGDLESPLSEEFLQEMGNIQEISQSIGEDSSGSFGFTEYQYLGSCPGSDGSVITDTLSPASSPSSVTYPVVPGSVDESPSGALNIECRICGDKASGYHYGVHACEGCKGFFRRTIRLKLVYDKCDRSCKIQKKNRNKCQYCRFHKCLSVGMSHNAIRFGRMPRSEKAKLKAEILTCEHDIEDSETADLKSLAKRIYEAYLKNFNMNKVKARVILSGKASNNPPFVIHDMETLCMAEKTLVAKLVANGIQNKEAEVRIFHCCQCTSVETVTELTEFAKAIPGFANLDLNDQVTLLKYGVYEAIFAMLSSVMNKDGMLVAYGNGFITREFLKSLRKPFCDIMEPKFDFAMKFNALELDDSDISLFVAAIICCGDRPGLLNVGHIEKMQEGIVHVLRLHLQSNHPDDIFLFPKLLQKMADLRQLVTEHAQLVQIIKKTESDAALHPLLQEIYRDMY
- experimentSummary: Agonistic activity was determined in COS1 cells transfected with GAL 4-PPAR alpha receptor
pEC50 here: minus log base 10 of the concentration, concentration in moles per litre.

Kindly note the recorded pEC50 for CCCc1c(OCCCCOc2ccc(/C=C/C(=O)O)cc2)ccc2c(-c3ccccc3)noc12 , which is 7.89

Kindly note the recorded pEC50 for CCCc1c(OCCCCOc2ccc(CCC(=O)O)cc2)ccc2c(-c3ccccc3)noc12 , which is 6.37

Kindly note the recorded pEC50 for CCCc1c(OCCOc2ccc(CCCC(=O)O)cc2)ccc2c(-c3ccccc3)noc12 , which is 7.48

Kindly note the recorded pEC50 for CCCc1c(OCCCCOc2cccc(OC(C)(C)C(=O)O)c2)ccc2c(-c3ccccc3)noc12 , which is 7.04

Hello, the source for this data is ChEMBL document CHEMBL1136629, in case you need it.
